B1: POU domain, class 3, transcription factor 3, residues 408 to 463; numbered along this chain, P20264 (parent)
chain: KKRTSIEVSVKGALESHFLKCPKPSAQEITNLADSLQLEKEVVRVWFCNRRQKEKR

Variants of: B1
Assay: abundance fitness (aPCA) (normalised: wild type 0, dead -1); higher = more abundant; growth selection in yeast, the domain comes from the species named
Settings: Homo sapiens
Would you please tag the item 1.0 when its abundance fitness is -0.3 or above, and 0.0 when it is below?

INPUT: State whether the measured abundance fitness reaches -0.3, counting equality as reaching it, for V45H
OUTPUT: 1.0

INPUT: Check this variant for abundance fitness at or above -0.3: K40W
OUTPUT: 1.0

INPUT: Decide: abundance fitness of V42P >= -0.3?
OUTPUT: 0.0

INPUT: Item K55P with abundance fitness of -0.3 or above?
OUTPUT: 1.0

INPUT: Does K1N have a reported abundance fitness of at least -0.3?
OUTPUT: 1.0

INPUT: Quick check, abundance fitness >= -0.3? L38C
OUTPUT: 0.0

INPUT: Hi, just wondering whether S25H shows abundance fitness of -0.3 or higher.
OUTPUT: 0.0

INPUT: Hi team, for L19C , is the recorded abundance fitness at or above -0.3?
OUTPUT: 1.0

INPUT: Assess whether reported abundance fitness for V45C sits at -0.3 or higher.
OUTPUT: 1.0

INPUT: Is the recorded value of abundance fitness equal to or greater than -0.3 for this variant? K11P
OUTPUT: 1.0

INPUT: Is abundance fitness at least -0.3? Consider R3T
OUTPUT: 1.0

INPUT: Check this variant for abundance fitness at or above -0.3: K40T
OUTPUT: 1.0

INPUT: Could you tell me if the measured abundance fitness of K53F reaches -0.3 or more?
OUTPUT: 1.0

INPUT: Is reported abundance fitness greater than or equal to -0.3 here: S25L
OUTPUT: 0.0

INPUT: Check the entry R51W : does abundance fitness equal or exceed -0.3?
OUTPUT: 1.0

INPUT: Given the entry I29H , answer whether its abundance fitness meets or surpasses -0.3.
OUTPUT: 0.0

INPUT: For this variant, is measured abundance fitness -0.3 or higher? P24A
OUTPUT: 0.0

INPUT: Is abundance fitness for Q37N at or above -0.3?
OUTPUT: 1.0

INPUT: Tell me whether abundance fitness is at least -0.3 here: K20Q
OUTPUT: 1.0

INPUT: Does abundance fitness meet or surpass -0.3 for P22L ?
OUTPUT: 0.0

INPUT: Would you say K1V shows abundance fitness at minimum -0.3?
OUTPUT: 1.0

INPUT: Please indicate if the recorded abundance fitness for V42W meets or exceeds -0.3.
OUTPUT: 1.0

INPUT: Check if abundance fitness >= -0.3 (inclusive). Item: E54G
OUTPUT: 1.0

INPUT: Record G12Q ; criterion: abundance fitness no lower than -0.3. Met?
OUTPUT: 1.0

INPUT: Is abundance fitness at least -0.3? Consider V45M
OUTPUT: 1.0

INPUT: abundance fitness >= -0.3 for P24E ?
OUTPUT: 0.0

INPUT: Does the variant L14W have recorded abundance fitness that is -0.3 or more?
OUTPUT: 0.0

INPUT: Hi, just wondering whether K2D shows abundance fitness of -0.3 or higher.
OUTPUT: 1.0

INPUT: In plain terms: is recorded abundance fitness at least -0.3 for R50F ?
OUTPUT: 0.0

INPUT: Check if abundance fitness >= -0.3 (inclusive). Item: E41S
OUTPUT: 1.0

INPUT: Exam item: decide whether the reported abundance fitness for S9V is at least -0.3.
OUTPUT: 1.0

INPUT: Does the variant A13F have recorded abundance fitness that is -0.3 or more?
OUTPUT: 1.0

INPUT: Please check the record L36Y and state if its abundance fitness is at or above -0.3.
OUTPUT: 0.0

INPUT: Could you please find out whether P22S has abundance fitness that meets -0.3 or exceeds it?
OUTPUT: 0.0

INPUT: Answer whether abundance fitness of R44V is greater than or equal to -0.3.
OUTPUT: 1.0

INPUT: Please tell me: is the variant S5P at or over -0.3 in terms of abundance fitness?
OUTPUT: 1.0

INPUT: Check if abundance fitness >= -0.3 (inclusive). Item: C21F
OUTPUT: 0.0

INPUT: Kindly determine if abundance fitness recorded for C48E is above or exactly -0.3.
OUTPUT: 1.0

INPUT: Given E28A , state whether its abundance fitness is at least -0.3.
OUTPUT: 1.0

INPUT: Say whether I29Q shows abundance fitness of -0.3 or more.
OUTPUT: 0.0

INPUT: abundance fitness >= -0.3 for Q52F ?
OUTPUT: 1.0

INPUT: Please check the record R51F and state if its abundance fitness is at or above -0.3.
OUTPUT: 0.0

INPUT: Hi team, for L38T , is the recorded abundance fitness at or above -0.3?
OUTPUT: 1.0

INPUT: abundance fitness >= -0.3 for L38Q ?
OUTPUT: 0.0

INPUT: Check this variant for abundance fitness at or above -0.3: T4F
OUTPUT: 1.0

INPUT: Hi team, for A33F , is the recorded abundance fitness at or above -0.3?
OUTPUT: 0.0

INPUT: Test whether the variant Q37R records abundance fitness of -0.3 or higher.
OUTPUT: 1.0

INPUT: Identify whether the reported abundance fitness of the following variant is -0.3 or greater: T30P
OUTPUT: 0.0

INPUT: Entry C48I : is its abundance fitness no less than -0.3?
OUTPUT: 1.0

INPUT: Determine whether measured abundance fitness meets or exceeds -0.3 for L14V
OUTPUT: 0.0

INPUT: Kindly determine if abundance fitness recorded for V42S is above or exactly -0.3.
OUTPUT: 1.0

INPUT: In plain terms: is recorded abundance fitness at least -0.3 for A33C ?
OUTPUT: 0.0

INPUT: Tell me whether abundance fitness is at least -0.3 here: Q27T
OUTPUT: 1.0

INPUT: Please check the record N49T and state if its abundance fitness is at or above -0.3.
OUTPUT: 1.0

INPUT: Decide: is the reported value of abundance fitness for V10P equal to or greater than -0.3?
OUTPUT: 0.0

INPUT: Does K2C have a reported abundance fitness of at least -0.3?
OUTPUT: 0.0

INPUT: Quick check, abundance fitness >= -0.3? V8L
OUTPUT: 1.0

INPUT: Check this variant for abundance fitness at or above -0.3: K23V
OUTPUT: 1.0

INPUT: # check: abundance fitness of I29Y is greater than or equal to -0.3
OUTPUT: 0.0

INPUT: Would you say Q27G shows abundance fitness at minimum -0.3?
OUTPUT: 1.0

INPUT: Given K11W , state whether its abundance fitness is at least -0.3.
OUTPUT: 1.0

INPUT: # check: abundance fitness of L32D is greater than or equal to -0.3
OUTPUT: 0.0

INPUT: Hello, I need to know if S5G has measured abundance fitness not below -0.3. Thanks!
OUTPUT: 1.0

INPUT: Dear colleague, could you confirm whether I6F has abundance fitness at or above -0.3?
OUTPUT: 1.0

INPUT: Has K55H a recorded abundance fitness greater than or equal to -0.3?
OUTPUT: 1.0

INPUT: Is the recorded value of abundance fitness equal to or greater than -0.3 for this variant? E39I
OUTPUT: 0.0

INPUT: Check if abundance fitness >= -0.3 (inclusive). Item: I29G
OUTPUT: 0.0

INPUT: Quick check: does T4I have abundance fitness greater than or equal to -0.3?
OUTPUT: 1.0

INPUT: Determine whether this variant has abundance fitness no lower than -0.3: Q27L
OUTPUT: 1.0

INPUT: Check this variant for abundance fitness at or above -0.3: L32K
OUTPUT: 0.0

INPUT: // inclusive: abundance fitness at least -0.3? input: E39Y
OUTPUT: 0.0

INPUT: Would you say E54Q shows abundance fitness at minimum -0.3?
OUTPUT: 1.0

INPUT: Quick check: does I29D have abundance fitness greater than or equal to -0.3?
OUTPUT: 0.0

INPUT: Could you verify whether the entry F47R shows abundance fitness of no less than -0.3?
OUTPUT: 0.0

INPUT: Reported abundance fitness reaches at least -0.3 for Q37D ?
OUTPUT: 1.0

INPUT: Quick check, abundance fitness >= -0.3? S35E
OUTPUT: 1.0

INPUT: hey, is abundance fitness for this one >= -0.3? V10R
OUTPUT: 1.0

INPUT: Decide: is the reported value of abundance fitness for A33W equal to or greater than -0.3?
OUTPUT: 0.0

INPUT: Test whether the variant F18D records abundance fitness of -0.3 or higher.
OUTPUT: 0.0
